Tested system: human creatine transporter-1 (CRT-1, SLC6A8), C-terminally YFP-tagged (Homo sapiens)
Construct: full-length cDNA in pEYFP-N1, C-terminal YFP tag, transiently expressed in HEK293 cells; oligomeric state not known
Sequence (P48029 1-635): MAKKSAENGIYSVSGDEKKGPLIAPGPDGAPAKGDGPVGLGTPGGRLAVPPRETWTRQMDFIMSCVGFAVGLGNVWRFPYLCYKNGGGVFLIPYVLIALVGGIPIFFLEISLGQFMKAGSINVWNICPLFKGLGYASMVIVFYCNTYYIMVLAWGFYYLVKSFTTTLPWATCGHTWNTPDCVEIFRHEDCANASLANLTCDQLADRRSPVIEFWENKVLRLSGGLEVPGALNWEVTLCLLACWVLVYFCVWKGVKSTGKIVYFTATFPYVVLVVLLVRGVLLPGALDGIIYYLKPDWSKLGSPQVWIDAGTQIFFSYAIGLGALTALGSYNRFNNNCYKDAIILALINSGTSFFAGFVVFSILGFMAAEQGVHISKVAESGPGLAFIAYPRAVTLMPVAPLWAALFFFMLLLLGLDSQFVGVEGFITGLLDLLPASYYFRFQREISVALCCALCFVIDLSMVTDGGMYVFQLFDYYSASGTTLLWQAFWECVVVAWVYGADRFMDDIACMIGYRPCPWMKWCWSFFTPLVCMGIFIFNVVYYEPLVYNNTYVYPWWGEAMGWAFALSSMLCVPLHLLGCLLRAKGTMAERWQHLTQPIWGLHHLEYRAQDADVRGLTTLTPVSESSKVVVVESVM
Assay details: whole-cell patch clamp, substrate-induced transport current in transfected HEK293 cells
# key: entry, value: EC50
Measured metric: EC50 (µM)

INSERT INTO assay_data (compound, measured_metric, quantitative_result) VALUES
  ('NC1=NCC(C(=O)O)CN1 (stereo not shown)', 'EC50', 103),
  ('CN(CC(=O)O)C(=N)N', 'EC50', 34.8),
  ('N=C(N)NCCC(=O)O', 'EC50', 13.2),
  ('NC1=NCCN1CC(=O)O', 'EC50', 162);
